Assay notes: total protein half-life in vivo (active degradation + dilution); higher = more stable protein
Condition info: wild type E. coli NCM3722; growth: C-lim chemostat; doubling time 12 h
Measured parameter: total protein half-life in vivo (h)
Express it in h; write the number only.

Briefly, total protein half-life in vivo measured for MKLSRISAINWNKISDDKDLEVWNRLTSNFWLPEKVPLSNDIPAWQTLTVVEQQLTMRVFTGLTLLDTLQNVIGAPSLMPDALTPHEEAVLSNISFMEAVHARSYSSIFSTLCQTKDVDAAYAWSEENAPLQRKAQIIQQHYRGDDPLKKKIASVFLESFLFYSGFWLPMYFSSRGKLTNTADLIRLIIRDEAVHGYYIGYKYQKNMEKISLGQREELKSFAFDLLLELYDNELQYTDELYAETPWADDVKAFLCYNANKALMNLGYEPLFPAEMAEVNPAILAALSPNADENHDFFSGSGSSYVMGKAVETEDEDWNF : 4.27

Per the records, this sequence ( MSQIFAYCRISTLDQTTENQRREIESAGFKIKPQQIIEEHISGSAATSERPGFNRLLARLKCGDQLIVTKLDRLGCNAMDIRKTVEQLTETGIRVHCLALGGIDLTSPTGKMMMQVISAVAEFERDLLLERTHSGIVRARGAGKRFGRPPVLNEEQKQAVFERIKSGVSISAIAREFKTSRQTILRAKAKLQTPDI ) has total protein half-life in vivo equal to 4.26

Record MTVRVAINGFGRIGRNVVRALYESGRRAEITVVAINELADAAGMAHLLKYDTSHGRFAWEVRQERDQLFVGDDAIRVLHERSLQSLPWRELGVDVVLDCTGVYGSREHGEAHIAAGAKKVLFSHPGSNDLDATVVYGVNQDQLRAEHRIVSNASCTTNCIIPVIKLLDDAYGIESGTVTTIHSAMHDQQVIDAYHPDLRRTRAASQSIIPVDTKLAAGITRFFPQFNDRFEAIAVRVPTINVTAIDLSVTVKKPVKANEVNLLLQKAAQGAFHGIVDYTELPLVSVDFNHDPHSAIVDGTQTRVSGAHLIKTLVWCDNEWGFANRMLDTTLAMATVAFR [P0A9B6] . Reported total protein half-life in vivo: 8.49

In plain terms, MALPILLDCDPGHDDAIAIVLALASPELDVKAITSSAGNQTPEKTLRNVLRMLTLLNRTDIPVAGGAVKPLMRELIIADNVHGESGLDGPALPEPTFAPQNCTAVELMAKTLRESAEPVTIVSTGPQTNVALLLNSHPELHSKIARIVIMGGAMGLGNWTPAAEFNIYVDPEAAEIVFQSGIPVVMAGLDVTHKAQIHVEDTERFRAIGNPVSTIVAELLDFFLEYHKDEKWGFVGAPLHDPCTIAWLLKPELFTSVERWVGVETQGKYTQGMTVVDYYYLTGNKPNATVMVDVDRQGFVDLLADRLKFYA has a documented total protein half-life in vivo of 10.5

Looking up MQILADLLNTIPAIDSTAMSRAQRHIDGLLKPVGSLGKLEVLAIQLAGMPGLNGIPHVGKKAVLVMCADHGVWEEGVAISPKEVTAIQAENMTRGTTGVCVLAEQAGANVHVIDVGIDTAEPIPGLINMRVARGSGNIASAPAMSRRQAEKLLLDVICYTQELAKNGVTLFGVGELGMANTTPAAAIVSTITGRDPEEVVGIGANLPTDKLANKIDVVRRAITLNQPNPQDGVDVLAKVGGFDLVGIAGVMLGAASCGLPVLLDGFLSYAAALAACQMSPAIKPYLIPSHLSAEKGARIALSHLGLEPYLNMEMRLGEGSGAALAMPIIEAACAIYNNMGELAASNIVLPGNTTSDLNS , I see its total protein half-life in vivo listed as 8.1

====

Assay notes: total protein half-life in vivo (active degradation + dilution); higher = more stable protein
Condition info: E. coli NCM3722 delta-hslV; growth: N-lim chemostat; doubling time 6 h
Field: total protein half-life in vivo. Provide a value for each of the sequences that follow.
State just the number; it will be interpreted in h.

// total protein half-life in vivo lookup, sequence = MLTVKQIEAAKPKEKPYRLLDGNGLYLYVPVSGKKVWQLRYKIDGKEKILTVGKYPLMTLQEARDKAWTARKDISVGIDPVKAKKASSNNNSFSAIYKEWYEHKKQVWSVGYATELAKMFDDDILPIIGGLEIQDIEPMQLLEVIRRFEDRGAMERANKARRRCGEVFRYAIVTGRAKYNPAPDLADAMKGYRKKNFPFLPADQIPAFNKALATFSGSIVSLIATKVLRYTALRTKELRSMLWKNVDFENRIITIDASVMKGRKIHVVPMSDQVVELLTTLSSITKPVSEFVFAGRNDKKKPICENAVLLVIKQIGYEGLESGHGFRHEFSTIMNEHEWPADAIEVQLAHANGGSVRGIYNHAQYLDKRREMMQWWADWLDEKVE , result: 5.96

Measured total protein half-life in vivo, MVDKSQETTHFGFQTVAKEQKADMVAHVFHSVASKYDVMNDLMSFGIHRLWKRFTIDCSGVRRGQTVLDLAGGTGDLTAKFSRLVGETGKVVLADINESMLKMGREKLRNIGVIGNVEYVQANAEALPFPDNTFDCITISFGLRNVTDKDKALRSMYRVLKPGGRLLVLEFSKPIIEPLSKAYDAYSFHVLPRIGSLVANDADSYRYLAESIRMHPDQDTLKAMMQDAGFESVDYYNLTAGVVALHRGYKF [P0A887] : 4.18

The value of total protein half-life in vivo measured for the sequence MSNQEPATILLIDDHPMLRTGVKQLISMAPDITVVGEASNGEQGIELAESLDPDLILLDLNMPGMNGLETLDKLREKSLSGRIVVFSVSNHEEDVVTALKRGADGYLLKDMEPEDLLKALHQAAAGEMVLSEALTPVLAASLRANRATTERDVNQLTPRERDILKLIAQGLPNKMIARRLDITESTVKVHVKHMLKKMKLKSRVEAAVWVHQERIF [P0AF28] turned out to be 4.05

====

Assay notes: total protein half-life in vivo (active degradation + dilution); higher = more stable protein
Condition info: wild type E. coli NCM3722; growth: P-lim chemostat; doubling time 12 h
For each of the sequences below, state its total protein half-life in vivo.

# sequence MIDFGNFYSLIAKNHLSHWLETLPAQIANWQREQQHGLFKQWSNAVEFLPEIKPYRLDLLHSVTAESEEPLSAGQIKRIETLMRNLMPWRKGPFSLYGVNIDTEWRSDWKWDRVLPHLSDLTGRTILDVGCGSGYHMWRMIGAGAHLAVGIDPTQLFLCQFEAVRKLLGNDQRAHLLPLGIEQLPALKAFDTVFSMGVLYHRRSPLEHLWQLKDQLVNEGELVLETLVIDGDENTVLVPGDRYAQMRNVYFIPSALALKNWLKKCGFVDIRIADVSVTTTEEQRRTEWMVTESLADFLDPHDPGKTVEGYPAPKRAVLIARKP ; its total protein half-life in vivo = 12.3 h

So for MAAKDRIQAIKQMVANDKKVTVSNLSGIFQVTEETIRRDLEKLEDEGFLTRTYGGAVLNTAMLTENIHFYKRASSFYEEKQLIARKALPFIDNKTTMAADSSSTVMELLKLLQDRSGLTLLTNSAEAIHVLAQSEIKVVSTGGELNKNTLSLQGRITKEIIRRYHVDIMVMSCKGLDINSGALDSNEAEAEIKKTMIRQATEVALLVDHSKFDRKAFVQLADFSHINYIITDKSPGAEWIAFCKDNNIQLVW , the logged total protein half-life in vivo turned out to be 13 h

The recorded total protein half-life in vivo for entry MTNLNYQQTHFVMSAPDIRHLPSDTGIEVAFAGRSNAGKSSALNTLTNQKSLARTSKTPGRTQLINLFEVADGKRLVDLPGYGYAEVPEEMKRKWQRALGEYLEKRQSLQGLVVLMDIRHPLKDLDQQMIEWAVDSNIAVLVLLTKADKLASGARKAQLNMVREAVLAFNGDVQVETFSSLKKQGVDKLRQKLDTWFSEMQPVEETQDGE [P0A6P7] equals 11.4 h

Input MTPEHLPTEQYEAQLAEKVVRLQSMMAPFSDLVPEVFRSPVSHYRMRAEFRIWHDGDDLYHIIFDQQTKSRIRVDSFPAASELINQLMTAMIAGVRNNPVLRHKLFQIDYLTTLSNQAVVSLLYHKKLDDEWRQEAEALRDALRAQNLNVHLIGRATKTKIELDQDYIDERLPVAGKEMIYRQVENSFTQPNAAMNIQMLEWALDVTKGSKGDLLELYCGNGNFSLALARNFDRVLATEIAKPSVAAAQYNIAANHIDNVQIIRMAAEEFTQAMNGVREFNRLQGIDLKSYQCETIFVDPPRSGLDSETEKMVQAYPRILYISCNPETLCKNLETLSQTHKVERLALFDQFPYTHHMECGVLLTAK . Output total protein half-life in vivo: 13.8 h

The value of total protein half-life in vivo measured for the sequence MTIWVDADACPNVIKEILYRAAERMQMPLVLVANQSLRVPPSRFIRTLRVAAGFDVADNEIVRQCEAGDLVITADIPLAAEAIEKGAAALNPRGERYTPATIRERLTMRDFMDTLRASGIQTGGPDSLSQRDRQAFAAELEKWWLEVQRSRG [P0A8D3] turned out to be 9.11 h

Measured total protein half-life in vivo of MQEYTNHSDTTFALRNISFRVPGRTLLHPLSLTFPAGKVTGLIGHNGSGKSTLLKMLGRHQPPSEGEILLDAQPLESWSSKAFARKVAYLPQQLPPAEGMTVRELVAIGRYPWHGALGRFGAADREKVEEAISLVGLKPLAHRLVDSLSGGERQRAWIAMLVAQDSRCLLLDEPTSALDIAHQVDVLSLVHRLSQERGLTVIAVLHDINMAARYCDYLVALRGGEMIAQGTPAEIMRGETLEMIYGIPMGILPHPAGAAPVSFVY : 12.9 h

FYI, the data here is from the supplement of paper PMC11246515.
